- targetOrSystem: ITK (Homo sapiens, UniProt Q08881)
- Sequence (Q08881 whole entry): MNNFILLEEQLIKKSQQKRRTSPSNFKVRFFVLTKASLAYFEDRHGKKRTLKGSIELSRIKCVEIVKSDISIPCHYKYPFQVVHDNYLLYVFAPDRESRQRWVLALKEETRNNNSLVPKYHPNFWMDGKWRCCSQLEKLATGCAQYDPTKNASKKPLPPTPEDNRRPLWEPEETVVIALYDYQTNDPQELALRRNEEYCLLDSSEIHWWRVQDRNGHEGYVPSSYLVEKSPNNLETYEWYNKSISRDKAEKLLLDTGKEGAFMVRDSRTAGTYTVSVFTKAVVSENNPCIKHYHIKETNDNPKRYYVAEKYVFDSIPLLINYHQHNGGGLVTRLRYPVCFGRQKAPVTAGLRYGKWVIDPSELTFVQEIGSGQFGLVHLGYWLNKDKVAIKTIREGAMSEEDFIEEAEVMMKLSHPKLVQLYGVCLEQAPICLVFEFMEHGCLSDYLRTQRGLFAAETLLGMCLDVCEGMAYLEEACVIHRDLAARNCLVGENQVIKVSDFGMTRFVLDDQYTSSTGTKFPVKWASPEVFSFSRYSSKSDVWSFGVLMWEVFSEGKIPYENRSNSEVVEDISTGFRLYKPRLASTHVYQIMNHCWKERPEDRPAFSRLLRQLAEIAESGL
- assayRemarks: ITK degradation HiBiT assay
- Assay type: cell-based
- Design: expressed in transfected cells; host or cells: Molt4 (ATCC CRL-1552), monoclonal clone 1C10, engineered to carry the HiBiT tag
- appliedConditions: C-terminal HiBiT-tagged Molt4 cells, 4 hrs
measuredEndpoint: DC50 (nM)

compound="C[C@@]12Cc3[nH]nc(-c4cc5ccc(N6CCC7(CCN(C(=O)C8CCN(c9ccc(C%10CCC(=O)NC%10=O)cn9)CC8)CC7)C6=O)cc5[nH]4)c3C[C@@H]1C2(F)F (some centres unmarked) [Compound 24]" targetorsystem="ITK (Homo sapiens, UniProt Q08881)" readoutunits=nM readingqualifier== quantitativereadout=0.01
compound="CC1(C)CCc2c(-c3cc4ccc(C(=O)N5CCN(CC6CCN(c7ccc8c(c7)CN(C7CCC(=O)NC7=O)C8=O)CC6)CC5)cc4[nH]3)n[nH]c2C1 (centres unmarked) [Compound 26]" targetorsystem="ITK (Homo sapiens, UniProt Q08881)" readoutunits=nM readingqualifier=< quantitativereadout=0.01
compound="C[C@@H](C(=O)N(C)c1ccc2cc(-c3n[nH]c4c3CCC(C)(C)C4)[nH]c2c1)N1CCN(C[C@H]2CCN(c3ccc4c(c3)n(C)c(=O)n4C3CCC(=O)NC3=O)C2)CC1 (some centres unmarked) [Compound 5]" targetorsystem="ITK (Homo sapiens, UniProt Q08881)" readoutunits=nM readingqualifier== quantitativereadout=1.3
compound="CN(C(=O)CC[C@H]1CCN(c2ccc3c(c2)C(=O)N(C2CCC(=O)NC2=O)C3=O)C1)c1ccc2cc(-c3n[nH]c4c3C[C@@H]3C(F)(F)[C@]3(C)C4)[nH]c2c1 (stereo in doubt) [Compound 67]" targetorsystem="ITK (Homo sapiens, UniProt Q08881)" readoutunits=nM readingqualifier== quantitativereadout=2.3
compound="Cn1c(=O)n(C2CCC(=O)NC2=O)c2cccc(N3CCC(CN4CC(n5cc(NC(=O)c6n[nH]c7c6C[C@@H]6C(F)(F)[C@]6(C)C7)cn5)C4)CC3)c21 (some centres unmarked) [Compound 57]" targetorsystem="ITK (Homo sapiens, UniProt Q08881)" readoutunits=nM readingqualifier=< quantitativereadout=0.01

---

- targetOrSystem: UniProt Q08881
- assayRemarks: ITK degradation MSD (Meso Scale Discovery) assay
- Format: cell-based
- Parameters: either human Jurkat (Clone E6-1 ATCC TIB-152) or Motl4 (ATCC CRL-1552), were plated; endogenous in cells; host or cells: Jurkat clone E6-1 (ATCC TIB-152) or Molt4 (ATCC CRL-1552)
- appliedConditions: Jurkat or Molt4 cells, 4 or 6 hrs
In this section, each of the compounds is paired with its reported Dmax.
measuredEndpoint: Dmax (%)

compound="C[C@@]12Cc3[nH]nc(C(=O)Nc4cnn([C@H](c5ccccc5)C5CN(C(=O)CCOCCOCCOCCNc6cccc7c6C(=O)N(C6CCC(=O)NC6=O)C7=O)C5)c4)c3C[C@@H]1C2(F)F (stereo partly shown)" targetorsystem="UniProt Q08881" measuredendpoint=Dmax readoutunits=% quantitativereadout=94
compound="CN(C(=O)CCN1CCN(c2ccc3c(c2)C(=O)N(C2CCC(=O)NC2=O)C3=O)CC1)c1ccc2cc(-c3n[nH]c4c3CCC(C)(C)C4)[nH]c2c1 (stereo not shown)" targetorsystem="UniProt Q08881" measuredendpoint=Dmax readoutunits=% quantitativereadout=84
compound="C[C@@H](C(=O)N(C)c1ccc2cc(-c3n[nH]c4c3CCC(C)(C)C4)[nH]c2c1)N1CCN(CC2CCN(c3ccc4c(c3)n(C)c(=O)n4C3CCC(=O)NC3=O)CC2)CC1 (stereo partly shown)" targetorsystem="UniProt Q08881" measuredendpoint=Dmax readoutunits=% quantitativereadout=81
compound="C[C@@]12Cc3[nH]nc(C(=O)Nc4cnn([C@H](c5ccccc5)C5CN(C(=O)CCOCCOCCOCCOCCOCCNc6cccc7c6C(=O)N(C6CCC(=O)NC6=O)C7=O)C5)c4)c3C[C@@H]1C2(F)F (stereo partly shown)" targetorsystem="UniProt Q08881" measuredendpoint=Dmax readoutunits=% quantitativereadout=95
compound="C[C@@H](C(=O)N(C)c1ccc2cc(-c3n[nH]c4c3CCC(C)(C)C4)[nH]c2c1)N1CCN(C(=O)C2CN(C3CCN(c4ccc5c(c4)C(=O)N(C4CCC(=O)NC4=O)C5=O)CC3)C2)CC1 (stereo partly shown)" targetorsystem="UniProt Q08881" measuredendpoint=Dmax readoutunits=% quantitativereadout=86
compound="C[C@@]12Cc3[nH]nc(C(=O)Nc4cnn([C@H](c5ccccc5)C5CN(C(=O)C6CCN(c7ccc8c(c7)C(=O)N(C7CCC(=O)NC7=O)C8=O)CC6)C5)c4)c3C[C@@H]1C2(F)F (stereo partly shown)" targetorsystem="UniProt Q08881" measuredendpoint=Dmax readoutunits=% quantitativereadout=84
compound="CN(C(=O)CCC1CCN(c2ccc3c(c2)C(=O)N(C2CCC(=O)NC2=O)C3=O)C1)c1ccc2cc(-c3n[nH]c4c3CCC(C)(C)C4)[nH]c2c1 (stereo not shown)" targetorsystem="UniProt Q08881" measuredendpoint=Dmax readoutunits=% quantitativereadout=87
compound="C[C@@]12Cc3[nH]nc(C(=O)Nc4cnn([C@H](c5ccccc5)C5CN(CCOCCOCCOCCOCCOCCNc6cccc7c6C(=O)N(C6CCC(=O)NC6=O)C7=O)C5)c4)c3C[C@@H]1C2(F)F (stereo partly shown)" targetorsystem="UniProt Q08881" measuredendpoint=Dmax readoutunits=% quantitativereadout=95
compound="CC(C1CN(C(=O)C2CN(C3CCN(c4ccc5c(c4)C(=O)N(C4CCC(=O)NC4=O)C5=O)CC3)C2)C1)n1cc(NC(=O)c2n[nH]c3c2C[C@@H]2C(F)(F)[C@]2(C)C3)cn1 (stereo partly shown)" targetorsystem="UniProt Q08881" measuredendpoint=Dmax readoutunits=% quantitativereadout=94
compound="C[C@@]12Cc3[nH]nc(C(=O)Nc4cnn([C@H](c5ccccc5)C5CN(C(=O)CCOCCNc6cccc7c6C(=O)N(C6CCC(=O)NC6=O)C7=O)C5)c4)c3C[C@@H]1C2(F)F (stereo partly shown)" targetorsystem="UniProt Q08881" measuredendpoint=Dmax readoutunits=% quantitativereadout=92
